assayed-target: C. difficile toxin A from strain VPI10463 (ATCC 43255), toxinotype 0 (Clostridium difficile, UniProt P16154 1-2710)
Sequence (P16154 whole entry): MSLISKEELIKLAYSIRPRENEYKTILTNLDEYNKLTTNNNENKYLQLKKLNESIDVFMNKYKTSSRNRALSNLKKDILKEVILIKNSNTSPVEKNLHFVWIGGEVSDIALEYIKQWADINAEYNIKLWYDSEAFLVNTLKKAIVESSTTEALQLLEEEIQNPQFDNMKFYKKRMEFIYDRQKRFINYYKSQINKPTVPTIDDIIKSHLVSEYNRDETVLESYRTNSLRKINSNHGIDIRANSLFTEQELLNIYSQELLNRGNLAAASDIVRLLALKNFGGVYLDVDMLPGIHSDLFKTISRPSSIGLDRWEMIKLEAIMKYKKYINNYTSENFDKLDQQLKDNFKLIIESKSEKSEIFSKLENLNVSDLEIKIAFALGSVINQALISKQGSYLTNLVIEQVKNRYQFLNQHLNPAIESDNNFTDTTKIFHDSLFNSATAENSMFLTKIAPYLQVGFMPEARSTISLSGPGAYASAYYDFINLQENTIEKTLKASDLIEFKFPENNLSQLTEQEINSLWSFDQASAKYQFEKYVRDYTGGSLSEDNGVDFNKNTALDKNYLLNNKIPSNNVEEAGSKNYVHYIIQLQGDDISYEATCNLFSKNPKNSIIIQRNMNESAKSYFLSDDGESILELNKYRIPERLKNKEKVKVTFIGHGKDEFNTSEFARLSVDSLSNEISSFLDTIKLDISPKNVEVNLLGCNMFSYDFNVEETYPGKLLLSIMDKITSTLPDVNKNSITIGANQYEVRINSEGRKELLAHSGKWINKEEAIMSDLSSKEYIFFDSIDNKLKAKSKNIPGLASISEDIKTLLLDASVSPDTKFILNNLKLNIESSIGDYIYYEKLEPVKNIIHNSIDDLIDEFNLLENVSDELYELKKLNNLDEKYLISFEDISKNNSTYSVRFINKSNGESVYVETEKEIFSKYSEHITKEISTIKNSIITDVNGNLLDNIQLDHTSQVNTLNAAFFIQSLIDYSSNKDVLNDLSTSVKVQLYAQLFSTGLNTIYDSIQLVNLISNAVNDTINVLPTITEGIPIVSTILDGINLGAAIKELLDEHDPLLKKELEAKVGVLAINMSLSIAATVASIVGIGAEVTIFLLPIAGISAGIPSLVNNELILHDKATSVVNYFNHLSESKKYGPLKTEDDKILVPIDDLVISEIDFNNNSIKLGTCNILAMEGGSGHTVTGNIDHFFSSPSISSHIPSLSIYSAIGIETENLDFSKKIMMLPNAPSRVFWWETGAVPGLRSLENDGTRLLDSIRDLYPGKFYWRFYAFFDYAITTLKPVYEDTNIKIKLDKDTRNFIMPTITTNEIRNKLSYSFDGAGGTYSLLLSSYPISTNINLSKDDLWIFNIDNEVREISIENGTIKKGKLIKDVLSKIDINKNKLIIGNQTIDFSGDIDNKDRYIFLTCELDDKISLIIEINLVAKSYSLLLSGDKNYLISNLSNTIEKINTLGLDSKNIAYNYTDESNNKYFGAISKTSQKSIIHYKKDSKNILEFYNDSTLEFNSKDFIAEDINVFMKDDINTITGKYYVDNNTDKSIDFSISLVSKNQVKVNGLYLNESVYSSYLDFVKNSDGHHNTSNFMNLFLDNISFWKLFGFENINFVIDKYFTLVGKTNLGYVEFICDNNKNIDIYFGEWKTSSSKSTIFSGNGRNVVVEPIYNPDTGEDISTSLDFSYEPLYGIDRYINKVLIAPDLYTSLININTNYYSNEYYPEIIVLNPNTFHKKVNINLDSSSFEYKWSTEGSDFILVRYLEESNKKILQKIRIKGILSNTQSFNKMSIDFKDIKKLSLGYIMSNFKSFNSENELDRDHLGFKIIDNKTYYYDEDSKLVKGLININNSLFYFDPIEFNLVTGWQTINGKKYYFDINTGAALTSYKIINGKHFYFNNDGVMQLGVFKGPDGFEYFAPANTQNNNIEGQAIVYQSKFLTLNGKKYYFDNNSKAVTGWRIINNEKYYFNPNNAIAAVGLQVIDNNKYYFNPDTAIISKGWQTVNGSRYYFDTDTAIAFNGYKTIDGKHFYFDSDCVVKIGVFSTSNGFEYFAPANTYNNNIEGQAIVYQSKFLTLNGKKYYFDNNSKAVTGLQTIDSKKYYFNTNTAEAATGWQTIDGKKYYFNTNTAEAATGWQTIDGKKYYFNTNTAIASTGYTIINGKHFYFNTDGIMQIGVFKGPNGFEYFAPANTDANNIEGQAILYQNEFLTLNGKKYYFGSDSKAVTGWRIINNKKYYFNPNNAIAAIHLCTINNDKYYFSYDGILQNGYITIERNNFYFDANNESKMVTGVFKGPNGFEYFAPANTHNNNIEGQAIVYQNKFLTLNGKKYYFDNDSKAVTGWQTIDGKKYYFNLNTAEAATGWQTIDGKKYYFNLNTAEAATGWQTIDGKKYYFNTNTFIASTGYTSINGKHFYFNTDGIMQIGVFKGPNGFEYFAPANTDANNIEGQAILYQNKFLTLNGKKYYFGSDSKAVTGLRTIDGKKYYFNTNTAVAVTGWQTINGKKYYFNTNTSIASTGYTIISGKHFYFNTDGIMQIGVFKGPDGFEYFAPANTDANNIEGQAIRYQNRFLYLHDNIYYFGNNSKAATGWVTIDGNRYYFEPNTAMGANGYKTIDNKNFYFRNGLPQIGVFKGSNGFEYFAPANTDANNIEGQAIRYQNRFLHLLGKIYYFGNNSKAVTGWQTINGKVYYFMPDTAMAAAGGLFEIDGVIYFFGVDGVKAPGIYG
test: BLI (Octet Red96), antibody on Protein A sensor, toxin in solution
Provide the reported Kd of each item.
Numbers only, in pM.

binder	assay-value
A5 antibody (antibody, V domains shown) VH: QVHLVESGGGVVQPGRSLRLSCATFGLNFSDYGFHWVRQAPGKGLEWVAVTSYDGSNKYYAEFVKGRFTISRDNYKNTVYLQMNSLRLEDTAVYYCARDLAPYNFWSGYGNNWFDPWGQGTLVTVSS VL: EIVMTQSPATLSVSPGERATLSCRASQSISSNLAWYQQKPGQAPRLLIYDASTRATGIPARFSGSGSGTEFTLTISSLQSEDFAVYYCQQYNDWLVTFGQGTKVEIKR	144
A2 antibody (antibody, V domains shown) VH: QVQLQESGPGLVKPSETLSLTCTVSGGSISTYYWSWIRQSPGKGLEWMGYIYYSGSTNYNPSLESRVTIAVDTSKNQFSLQLTSVTAADTAVYYCARGAAEWLRFRGFFDSWGQGTLVTVSS VL: ENVLTQSPGTLSLSPGERATLSCRASHSVTNNFLAWYQQKPGQAPRLLIYGVSSRATGIPDRFSGSGSGTDFTLTISRLEPEDFAVYYCQQYGVSGTFGQGTKLEIKR	4.43

Turning now to a further binder:
Recorded result, A4 antibody (antibody, V domains shown) VH: QVHLVESGGGVVQPGRSLRLSCATFGLNFSDYGFHWVRQAPGKGLEWVAVTSYDGSNKYYAEFVKGRFTISRDNYKNTVYLQMNSLRLEDTAVYYCARDLAPYNFWSGYGNNWFDPWGQGTLVTVSS VL: EIVLTQSPGTLSLSPGERATLSCRASQSVTGTSLAWFQQKPGQAPRLLIYGASSRATGIPDRFSGSGSGTDFTLTISRLEPEDFAVYYCQQYGSSPRLTFGGGTKVEIKR , Kd: 0.557
